B1: RNF115 peptide 69-84 (E3 ubiquitin-protein ligase RNF115), 16-mer library wild type / MDM2 SWIB (MDM2 SWIB/MDM2 domain, residues 17-125) (parent)
chain 1: THFAELWGHLDHTMFF
chain 2: SQIPASEQETLVRPKPLLLKLLKSVGAQKDTYTMKEVLFYLGQYIMTKRLYDEKQQHIVYCSNDLLGDLFGVPSFSVKEHRKIYTMIYRNLVVVNQQESSDSGTSVSEN

Variants of: B1
test method notes: proteomic peptide phage display deep mutational scan (ProP-PD DMS): M13 P8 16-mer library selected against immobilised GST-tagged bait for four days (rounds), NGS of the eluted pools per day and pseudo-replica
assay setup: with MDM2 SWIB (MDM2 SWIB/MDM2 domain, residues 17-125); bait immobilised on MaxiSorp plates (10 µg), library pre-cleared on GST, 2 h binding at 4 °C, five washes; one round per day, days 1-4; value from days 2 and 3; keep out of graded; scale: average fractional NGS count over selection days 2 and 3
recorded metric: screen value
One number for each entry.

# annotated cases, reported screen value shown
# mutation id, recorded metric, numeric result
rows = [
    ("chain 1 G8L", "screen value", "6.83e-05"),
    ("chain 1 W7K", "screen value", 0),
    ("chain 1 M14R", "screen value", "6.33e-05"),
]

Take each entry in turn and give its screen value.
1. chain 1 D11V
2. chain 1 T13F
3. chain 1 E5G
4. chain 1 T1E
5. chain 1 F3P
6. chain 1 E5I
7. chain 1 L6T
8. chain 1 E5F

Result:
1: 5.15e-05; 2: 3.43e-05; 3: 0.00012; 4: 8.39e-05; 5: 0.000115; 6: 1.29e-05; 7: 0; 8: 4.65e-05
